Biological target: furin, P09958;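 also: purified furin at 1:10 enzyme:substrate in 50 mM HEPES pH 7.5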
Sequence (P09958 whole entry): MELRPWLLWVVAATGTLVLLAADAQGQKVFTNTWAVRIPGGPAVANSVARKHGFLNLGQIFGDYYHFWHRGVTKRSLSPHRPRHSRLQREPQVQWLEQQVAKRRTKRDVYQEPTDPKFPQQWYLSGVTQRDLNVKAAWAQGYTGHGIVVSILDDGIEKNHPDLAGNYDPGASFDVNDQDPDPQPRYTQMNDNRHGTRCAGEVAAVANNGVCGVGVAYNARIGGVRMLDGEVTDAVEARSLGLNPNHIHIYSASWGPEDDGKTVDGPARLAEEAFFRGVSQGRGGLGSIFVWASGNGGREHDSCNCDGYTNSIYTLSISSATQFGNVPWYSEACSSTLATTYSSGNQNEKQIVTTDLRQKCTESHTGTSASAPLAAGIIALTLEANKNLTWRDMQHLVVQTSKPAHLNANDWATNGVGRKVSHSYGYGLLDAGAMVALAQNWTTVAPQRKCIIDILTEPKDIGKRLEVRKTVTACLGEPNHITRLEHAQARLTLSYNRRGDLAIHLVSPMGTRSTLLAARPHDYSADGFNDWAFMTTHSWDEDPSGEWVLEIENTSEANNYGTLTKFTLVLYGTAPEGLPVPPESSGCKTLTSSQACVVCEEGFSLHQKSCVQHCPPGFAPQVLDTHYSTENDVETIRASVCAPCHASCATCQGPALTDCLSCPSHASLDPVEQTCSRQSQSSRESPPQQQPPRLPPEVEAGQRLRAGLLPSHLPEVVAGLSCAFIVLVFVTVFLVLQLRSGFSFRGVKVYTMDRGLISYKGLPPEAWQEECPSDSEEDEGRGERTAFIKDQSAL
Experiment: furin cleavage Z-score vs untreated control; higher = more cleavage, active = 3.5 or more, inactive = 1 or less, 8 variable residues between constant flanks
Conditions: 30 min
The list shows a part of the results. The hit rate among all sequences tested is not known here.
Outcome field: choose from YES (active), NO (inactive)

Known results for sequences:
- sequence_data: "CAVVCCKMSYAGNASASA [HC111]"
  qualitative_label: "NO"
- sequence_data: "CAYSPGEINRAGNASASA [HC1609]"
  qualitative_label: "NO"
- sequence_data: "CADSDAESYSAGNASASA [HC1350]"
  qualitative_label: "NO"
- sequence_data: "CAVVNCSMSYAGNASASA [HC2041]"
  qualitative_label: "NO"
- sequence_data: "CAAVTHINSVAGNASASA [HC1428]"
  qualitative_label: "NO"
- sequence_data: "CAILEVVTSTAGNASASA [HC2264]"
  qualitative_label: "NO"

Request: Write down the call the test reported for this sequence. Item: CANTNGSWHLAGNASASA [HC368]
Response: NO

Request: Write down the call the test reported for this sequence. Item: CAEVPCHAPSAGNASASA [HC2363]
Response: NO

Request: Write down the call the test reported for this sequence. Item: CAIRMYVGGVAGNASASA [HC475]
Response: NO

Request: Write down the call the test reported for this sequence. Item: CAGAVYTFYGAGNASASA [HC553]
Response: NO

Request: Write down the call the test reported for this sequence. Item: CARLARALSPAGNASASA [FS-1735]
Response: YES

Request: Write down the call the test reported for this sequence. Item: CARLARGSPPAGNASASA [HC1255]
Response: NO
